# SUBJECT_OF_TEST: CYP3A4 (Homo sapiens, UniProt P08684)
# Sequence (P08684 whole entry): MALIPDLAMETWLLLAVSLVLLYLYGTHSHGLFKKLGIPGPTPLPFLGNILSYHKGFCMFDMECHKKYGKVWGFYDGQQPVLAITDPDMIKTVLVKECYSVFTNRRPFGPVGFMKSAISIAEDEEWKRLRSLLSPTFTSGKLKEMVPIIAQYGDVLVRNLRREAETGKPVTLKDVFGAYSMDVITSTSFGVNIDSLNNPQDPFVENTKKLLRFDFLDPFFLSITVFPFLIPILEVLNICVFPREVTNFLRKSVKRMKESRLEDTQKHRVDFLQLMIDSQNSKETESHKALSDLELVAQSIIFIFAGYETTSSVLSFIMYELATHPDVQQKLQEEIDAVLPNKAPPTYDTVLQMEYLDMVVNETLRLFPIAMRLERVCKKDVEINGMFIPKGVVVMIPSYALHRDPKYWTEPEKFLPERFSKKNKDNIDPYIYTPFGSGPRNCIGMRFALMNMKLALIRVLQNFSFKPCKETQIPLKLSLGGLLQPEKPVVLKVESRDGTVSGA
# METHOD_SUMMARY: In vitro mechanism-based inactivation of CYP3A4
# Type: biochemical
QUANTITY_KIND: KI (inactivation) (µM)
Write it as a number; the unit µM goes unstated.

KI (inactivation) for FC(F)(F)c1ccc(CNc2ccc(Cc3c[nH]c4ncc(Cl)cc34)cn2)cn1 ?
4.01

---

# METHOD_SUMMARY: Esomeprazole
# Type: in vivo, human
# DETAILS: human, plasma, oral, 600 mg, AUC∞, Geometric LS mean, ANOVA; pexidartinib alone
QUANTITY_KIND: AUC(0-inf) (µg·h/mL)
Just the number in µg·h/mL, nothing appended.

Report AUC(0-inf) for FC(F)(F)c1ccc(CNc2ccc(Cc3c[nH]c4ncc(Cl)cc34)cn2)cn1 please.
104
